# target entity: recombinant IL4I1 (Homo sapiens (Human), UniProt Q96RQ9)
# Sequence (Q96RQ9 22-567): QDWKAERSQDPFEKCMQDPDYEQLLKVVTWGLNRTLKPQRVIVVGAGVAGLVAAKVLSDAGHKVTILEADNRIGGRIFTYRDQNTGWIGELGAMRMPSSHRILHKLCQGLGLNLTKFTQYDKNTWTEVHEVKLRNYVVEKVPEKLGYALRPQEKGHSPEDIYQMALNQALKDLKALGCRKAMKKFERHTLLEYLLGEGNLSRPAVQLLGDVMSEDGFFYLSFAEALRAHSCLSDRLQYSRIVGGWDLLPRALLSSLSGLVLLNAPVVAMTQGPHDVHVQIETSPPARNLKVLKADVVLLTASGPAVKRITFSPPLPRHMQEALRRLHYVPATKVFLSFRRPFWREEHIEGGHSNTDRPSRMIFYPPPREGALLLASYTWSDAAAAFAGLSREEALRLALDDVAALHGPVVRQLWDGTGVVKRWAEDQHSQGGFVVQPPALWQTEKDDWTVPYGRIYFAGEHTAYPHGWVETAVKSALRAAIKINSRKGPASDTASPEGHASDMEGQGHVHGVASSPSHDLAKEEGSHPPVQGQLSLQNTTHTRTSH
# assay: IL4I1 Enzymatic Assay (Amplex Red/HRP coupled fluorescence detection of H2O2)
# Format: biochemical
# condition notes: 240 min; recombinant IL4I1, four-hour pre-incubation with compound
Measured EC50 by item

| compound | EC50 |
| --- | --- |
| O=c1c(=O)n(C23CC(F)(C2)C3)ccn1Cc1cc(-c2ccccn2)on1 | 21 nM |
| O=C1C(=O)N(C2CCCC2)CCN1Cc1ccc(-c2cn[nH]c2)cc1F | 21 nM |
| O=C1C(=O)N(C2CC3CC3C2)CCN1Cc1nnc(-c2ccc(F)cc2)s1 (stereo not drawn) | 4 nM |
| O=c1c(=O)n([C@H]2C[C@H]3C[C@H]3C2)ccn1Cc1ncc(-c2nccs2)cc1F | 42 nM |
| O=C1C(=O)N([C@H]2C[C@@H](c3ccccc3)C2)CCN1Cc1ccc(-c2ccccc2)nn1 [Example 96B] | 8 nM |
| O=c1c(=O)n(C2CCC2)ccn1Cc1cnc(-c2ccccc2F)cn1 | 5 nM |
| O=C1C(=O)N(C2CCCC2)CCN1Cc1ccc(-n2nccn2)cc1F | 24 nM |
| O=C1C(=O)N(C2CCC2)CCN1Cc1ccc(-c2cn[nH]c2)nn1 | 21 nM |
| N#CC1(n2ccn(Cc3ccc(-c4cccnc4)nn3)c(=O)c2=O)CC1 | 32 nM |
| O=C1C(=O)N(C2CCC2)CCN1Cc1ccc(-n2nccn2)nc1 | 15 nM |
| CC(c1cnc(-c2ccccc2)cn1)N1CCN(C2CCC2)C(=O)C1=O (stereo not drawn) | 20 nM |
| O=c1c(=O)n(C2CCCC2)ccn1Cc1nnc(-c2cccc(F)c2)s1 | 1 nM |
| CC1(n2ccn(Cc3ccc(-c4ccccn4)cn3)c(=O)c2=O)CC1 | 69 nM |
| O=C1C(=O)N(C23CC(F)(C2)C3)CCN1Cc1ccc(-n2nccn2)cn1 | 45 nM |
| O=C1C(=O)N(C23CC(C2)C3)CCN1Cc1nnc(-c2ccccc2F)s1 | 6 nM |
| O=c1c(=O)n(C23CC(F)(C2)C3)ccn1Cc1ccc(-c2ccccn2)cn1 | 54 nM |
| O=c1c(=O)n(C2CCC2)ccn1Cc1nnc(-c2ccccc2F)s1 | 34 nM |
| O=C1C(=O)N(C2CCCC2)CCN1Cc1ccc(-c2nccs2)nc1 | 17 nM |

###

# target entity: recombinant IL4I1 (Homo sapiens (Human), UniProt Q96RQ9)
# assay: IL4I1 Enzymatic Assay (Amplex Red/HRP coupled fluorescence detection of H2O2)
# Format: biochemical
# condition notes: 240 min; recombinant IL4I1, four-hour pre-incubation with compound
measurement kind: log10 of EC50 (log10 of the value in nM)

| structure smiles string | recorded number |
| --- | --- |
| O=C1C(=O)N(C23CC(C2)C3)CCN1Cc1ccc(-n2nccn2)nn1 | 1.68 |
| O=C1C(=O)N(C2CCCC2)CCN1Cc1cc(-c2ccccc2F)no1 | 0.48 |
| O=c1c(=O)n(C23CC(F)(C2)C3)ccn1Cc1ccc(-n2ccnn2)cn1 | 2.94 |
| CC1(N2CCN(Cc3cc(-c4ccc(F)cc4)no3)C(=O)C2=O)CCC1 | 1.00 |
| O=C1C(=O)N(C2CCCC2)CCN1Cc1cnc(-c2ccccc2F)cn1 | 1.11 |
| CC1(n2ccn(Cc3cc(-c4cccc(F)c4)on3)c(=O)c2=O)CCC1 | 0.70 |
| O=c1c(=O)n([C@H]2C[C@H]3C[C@H]3C2)ccn1Cc1ccc(-c2ccccc2)nn1 | 0.60 |
| O=c1c(=O)n(C2CCC2)ccn1Cc1cc(-c2cccc(F)c2)no1 | 0.00 |
| O=C1C(=O)N(C2CCC2)CCN1Cc1cnc(-n2nccn2)cn1 | 1.72 |
